species: Rattus norvegicus; experiment: DrugMatrix - Regimen: Daily Repeat; format: toxicity, organism-based, Sprague-Dawley; parameters: regimen Daily Repeat, gender Male, age 6-8 weeks; details: in vivo, po, 0 mg/kg, 72 h, tissue Plasma, route oral GAVAGE, dose level Control, time 3 day, […]
QUANTITY KIND: ALKALINE PHOSPHATASE (u/L)
Please respond with the number in u/L and leave the unit unwritten.

Answered cases to consult:
• CN(CCOc1ccc(CC2SC(=O)NC2=O)cc1)c1ccccn1 (stereo not drawn) = 374.17
• CC[C@H](C)C(=O)O[C@H]1C[C@@H](C)C=C2C=C[C@H](C)[C@H](CC[C@@H]3C[C@@H](O)CC(=O)O3)[C@H]21 = 378.67

// below: ALKALINE PHOSPHATASE requested for another molecule
Q: Reported ALKALINE PHOSPHATASE for CC(CCc1ccc(O)cc1)NCCc1ccc(O)c(O)c1 (stereo not drawn) : what is it?
Result: 530

====

species: Rattus norvegicus; experiment: DrugMatrix - Regimen: Daily Repeat; type: toxicity, organism-based, Sprague-Dawley; set-up: regimen Daily Repeat, gender Male, age 6-8 weeks; settings: in vivo, po, 1500 mg/kg, 120 h, tissue Plasma, route oral GAVAGE, dose level High, time 5 day, vehicle .5 % CMC
Tick True if ALKALINE PHOSPHATASE is 400 u/L or greater. Tick False if ALKALINE PHOSPHATASE is less than 400 u/L.

Example entries and their recorded answers appear below.
* CC(C)(Sc1cc(C(C)(C)C)c(O)c(C(C)(C)C)c1)Sc1cc(C(C)(C)C)c(O)c(C(C)(C)C)c1 | True
* O=c1cc(-c2ccccc2)oc2ccc3ccccc3c12 | False
* CCOC(=O)[C@H](CCc1ccccc1)N[C@@H](C)C(=O)N1CCC[C@H]1C(=O)O | False

Q: ALKALINE PHOSPHATASE >= 400 u/L for C[C@@H](O)[C@H]1C(=O)N2C(C(=O)O)=C(S[C@@H]3CN[C@H](C(=O)N(C)C)C3)[C@H](C)[C@H]12 ?
Result: True

Q: ALKALINE PHOSPHATASE >= 400 u/L for Nc1nc2c(c(=O)[nH]1)N(C=O)C(CNc1ccc(C(=O)N[C@@H](CCC(=O)O)C(=O)O)cc1)CN2 (stereo not given in full) ?
Result: False

====

species on record: Rattus norvegicus; format: toxicity, organism-based, Sprague-Dawley; settings: in vivo, po, 15 mg/kg, 24 h, tissue Blood, route oral GAVAGE, dose level High, time 1 day, […]
Description: DrugMatrix - Regimen: Single
QUANTITY KIND: ABSOLUTE EOSINOPHIL
Answer format: number, then unit.

Q: Reported ABSOLUTE EOSINOPHIL for CC(CCc1ccc(O)cc1)NCCc1ccc(O)c(O)c1 (stereo unspecified) : what is it?
Result: 56.7 cells/µL

====

Recorded NUCLEATED RED BLOOD CELLS by entry
organism: Rattus norvegicus; test: DrugMatrix - Regimen: Daily Repeat; type: toxicity, organism-based, Sprague-Dawley; set-up: regimen Daily Repeat, gender Male, age 6-8 weeks; settings: in vivo, po, 1500 mg/kg, 120 h, tissue Blood, route oral GAVAGE, dose level High, time 5 day, vehicle .5 % CMC

Answered cases to consult:
- Nc1nc2c(c(=O)[nH]1)N(C=O)C(CNc1ccc(C(=O)N[C@@H](CCC(=O)O)C(=O)O)cc1)CN2 (some centres undefined): 0 /100WBC
- CCOC(=O)[C@H](CCc1ccccc1)N[C@@H](C)C(=O)N1CCC[C@H]1C(=O)O: 0.33 /100WBC
- C[C@@H](O)[C@H]1C(=O)N2C(C(=O)O)=C(S[C@@H]3CN[C@H](C(=O)N(C)C)C3)[C@H](C)[C@H]12: 0 /100WBC

// below: NUCLEATED RED BLOOD CELLS requested for another compound
Q: Reported NUCLEATED RED BLOOD CELLS for CC(C)(Sc1cc(C(C)(C)C)c(O)c(C(C)(C)C)c1)Sc1cc(C(C)(C)C)c(O)c(C(C)(C)C)c1 : what is it?
Result: 0 /100WBC

====

organism: Rattus norvegicus; experiment: DrugMatrix - Regimen: Daily Repeat; type: toxicity, organism-based, Sprague-Dawley; set-up: regimen Daily Repeat, gender Male, age 6-8 weeks; conditions: in vivo, po, 0 mg/kg, 120 h, tissue Blood, route oral GAVAGE, dose level Control, time 5 day, vehicle 100 % SALINE
Recorded MEAN CORPUSCULAR VOLUME by entry
Please respond with the number in fL and leave the unit unwritten.

Answered cases to consult:
* Cc1cc(CC(=O)O)n(C)c1C(=O)c1ccc(Cl)cc1 [ZOMEPIRAC] | 61.53
* Oc1ccccc1O | 61.53
* CCCc1nn(C)c2c(=O)[nH]c(-c3cc(S(=O)(=O)N4CCN(C)CC4)ccc3OCC)nc12 | 61.22

Q: Reported MEAN CORPUSCULAR VOLUME for CC(=O)OCC(CCn1cnc2cnc(N)nc21)COC(C)=O : what is it?
Result: 61.22

====

Recorded LYMPHOCYTE by entry
species on record: Rattus norvegicus; test: DrugMatrix - Regimen: Daily Repeat; assay type: toxicity, organism-based, Sprague-Dawley; design: regimen Daily Repeat, gender Male, age 6-8 weeks; details: in vivo, po, 0 mg/kg, 72 h, tissue Blood, route oral GAVAGE, dose level Control, time 3 day, vehicle .5 % CMC
Please respond with the number in % and leave the unit unwritten.

Answered cases to consult:
• Nc1cccc(Cl)c1 = 86.18
• Clc1cc2c(cc1Cl)Oc1cc(Cl)c(Cl)cc1O2 = 80.78
• CC[C@]1(O)CC[C@H]2[C@@H]3CCC4=CCCC[C@@H]4[C@H]3CC[C@@]21C = 76.98
• COc1ccc(/C=C/C(=O)Nc2ccccc2C(=O)O)cc1OC = 89.33

Q: Reported LYMPHOCYTE for C[C@]12C/C(=C/O)C(=O)C[C@@H]1CC[C@@H]1[C@@H]2CC[C@@]2(C)[C@H]1CC[C@]2(C)O : what is it?
Result: 84.44

====

organism: Rattus norvegicus; assay: DrugMatrix - Regimen: Daily Repeat; type: toxicity, organism-based, Sprague-Dawley; design: regimen Daily Repeat, gender Male, age 6-8 weeks; details: in vivo, po, 0 mg/kg, 72 h, tissue Plasma, route oral GAVAGE, dose level Control, time 3 day, […]
Hi! Just check whether ALBUMIN is below 4 G/DL. Below gives rule met, equal or above gives rule not met.

Example entries and their recorded answers appear below.
* CC(C)Cc1ccc(CC(=O)O)cc1 [IBUFENAC] | rule not met
* CC[C@H](C)C(=O)O[C@H]1C[C@@H](C)C=C2C=C[C@H](C)[C@H](CC[C@@H]3C[C@@H](O)CC(=O)O3)[C@H]21 [LOVASTATIN] | rule met

Here is the next item to consider.
Q: For CC(CCc1ccc(O)cc1)NCCc1ccc(O)c(O)c1 (configuration not stated) [DOBUTAMINE] , is the recorded ALBUMIN below the cut-off of 4 G/DL?
Result: rule not met

====

Recorded SODIUM by entry
species: Rattus norvegicus; assay: DrugMatrix - Regimen: Daily Repeat; assay type: toxicity, organism-based, Sprague-Dawley; set-up: regimen Daily Repeat, gender Male, age 6-8 weeks; settings: in vivo, po, 0 mg/kg, 72 h, tissue Plasma, route oral GAVAGE, dose level Control, time 3 day, vehicle .5 % CMC
Please respond with the number in MEQ/L and leave the unit unwritten.

* C[C@]12C/C(=C/O)C(=O)C[C@@H]1CC[C@@H]1[C@@H]2CC[C@@]2(C)[C@H]1CC[C@]2(C)O | 140.33
* CCCCC1C(=O)N(c2ccccc2)N(c2ccccc2)C1=O | 144.1
* CC(C(=O)O)c1ccc(-c2ccccc2)c(F)c1 (stereo not drawn) | 141.28
* Clc1cc2c(cc1Cl)Oc1cc(Cl)c(Cl)cc1O2 | 147.33
* C[C@@H](O)[C@H]1C(=O)N2C(C(=O)O)=C(S[C@@H]3CN[C@H](C(=O)N(C)C)C3)[C@H](C)[C@H]12 | 141.28
* CC(C)(Sc1cc(C(C)(C)C)c(O)c(C(C)(C)C)c1)Sc1cc(C(C)(C)C)c(O)c(C(C)(C)C)c1 | 141.28
* CN1C(=O)CN=C(c2ccccc2)c2cc(Cl)ccc21 | 142.22
* CO[C@H]1C[C@@H]2CC[C@@H](C)[C@@](O)(O2)C(=O)C(=O)N2CCCC[C@H]2C(=O)O[C@H]([C@H](C)C[C@@H]2CC[C@@H](O)[C@H](OC)C2)CC(=O)[C@H](C)/C=C(\C)[C@@H](O)[C@@H](OC)C(=O)[C@H](C)C[C@H](C)/C=C/C=C/C=C/1C | 140.68

// below: SODIUM requested for another compound
Q: Reported SODIUM for COc1ccccc1OCC(O)COC(N)=O (stereo not drawn) : what is it?
Result: 141.02
